Listed next: entries and their corresponding LD50.
- PROTOCOL TEXT: LD 50 toxicity, oral
- MEASUREMENT CONTEXT: in vivo, p.o., tested as hydrochlorides
VALUE TYPE: LD50

1. CC(=O)OCCN1CCN(c2cccc(C(F)(F)F)c2)CC1 | 925 mg/kg
2. COc1ccc(Cl)cc1C(=O)OCCN1CCN(c2cccc(C(F)(F)F)c2)CC1 | 1800 mg/kg
3. CC(=O)OCCN1CCN(c2cccc(SC(F)(F)F)c2)CC1 | 510 mg/kg
4. OCCN1CCN(c2ccccc2)CC1 | 525 mg/kg
5. OCCN1CCN(c2cccc(SC(F)(F)F)c2)CC1 | 500 mg/kg
6. Nc1ccccc1C(=O)OCCN1CCN(c2cccc(C(F)(F)F)c2)CC1 | 3000 mg/kg
7. OCCN1CCN(c2cccc(OC(F)(F)F)c2)CC1 | 575 mg/kg
8. OCCN1CCN(c2cccc(C(F)(F)F)c2)CC1 | 740 mg/kg
9. OCCN1CCN(c2cccc(Cl)c2)CC1 | 750 mg/kg
